testSummary: Plasma and tumor pharmacokinetics in HT29 tumor bearing mice
Type: in vivo
runParameters: mouse; HT29 tumor bearing mice, 30 mg/kg IV; read-out: elimination half-life in the tumor (converted)
Description: Dosing of animals and collection of samples was conducted by Quotient Bioresearch (Rushden) Ltd, UK. V158411 was administered by intravenous (IV) bolus injection to female Balb/C mice, male Sprague-Dawley rats or male beagle dogs. […] The ratios of analyte against IS peak areas were calculated, and concentrations derived from calibration lines generated by Quanlynx (Waters Ltd.). Pharmacokinetic parameters were calculated using the software package WinNonLin (Pharsight Corp.). […]

- entrySmiles: "CN(C)CC(C)(C)COc1ccc2[nH]c(-c3cc(NC(=O)c4cnn(Cc5ccccc5)c4)c[nH]c3=O)cc2c1"
  unitInfo: "h"
  half-life: 22
